- Test system: U2OS
- PROTOCOL DESCRIPTION: Multiplex assay against U2OS
- Format: toxicity, cell-based
- TEST SETTINGS: human, 24 h, 10 µM, compound concentration 10 uM, replicate 2
RECORDED ENDPOINT: Population Apoptotic (%)
Give the number; % is assumed, so skip it.

Q. Quick check: Population Apoptotic (%) on U2OS, item COc1ccccc1N1CCN(C[C@@H](C(=O)NC(C)(C)C)c2ccccc2)CC1.Cl.Cl ?
A. 70

Q. Then what about the compound CN(C)C(=O)Cn1cc(-c2ccc(-c3cncc4ccccc34)cc2)cn1 ?
A. 80

Q. Then what about the compound CC(C)(C)c1cc(NC(=O)Nc2ccc(-c3cn4c(n3)sc3cc(OCCN5CCOCC5)ccc34)cc2)no1 ?
A. 51

The measured values listed here are drawn from ChEMBL document CHEMBL5058577.
